As shown below, each of these variants has a reported yeast fitness value.
B1: tRNA (parent)
chain: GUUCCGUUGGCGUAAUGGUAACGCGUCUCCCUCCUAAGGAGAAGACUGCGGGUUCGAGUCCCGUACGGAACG

# Variants of: B1
# Experimental protocol: yeast fitness relative to wild type (ratio to wild type); higher = fitter; tRNA-Arg(CCU), competitive growth, 37 C, YPD
This sample holds only a part of the variants without activity.
Readout kind: yeast fitness

INSERT INTO measurements (mutant, readout_kind, censor_symbol, assay_value) VALUES
  ('U2A C5A A21C', 'yeast fitness', '≤', 0.5),
  ('C5A A15U A69C', 'yeast fitness', '≤', 0.5),
  ('U13C U19C U26C C31A C61G', 'yeast fitness', '≤', 0.5),
  ('A14G G23A C60A', 'yeast fitness', '≤', 0.5),
  ('U19A C30G A43C U47C U54C', 'yeast fitness', '≤', 0.5),
  ('C34U C62G C66G G67U', 'yeast fitness', '≤', 0.5),
  ('U8G A21C G56C', 'yeast fitness', '=', 0.766),
  ('A15U C22G C27G A42C G63C', 'yeast fitness', '≤', 0.5),
  ('C31U C33G', 'yeast fitness', '=', 0.785),
  ('U7A C11A C30U U32A', 'yeast fitness', '≤', 0.5),
  ('U2A C11G C31G', 'yeast fitness', '=', 0.6),
  ('G9A U32G', 'yeast fitness', '=', 0.616),
  ('G9A C49U C55A', 'yeast fitness', '≤', 0.5),
  ('A45G A57C', 'yeast fitness', '=', 0.668),
  ('U19G C27U A42C', 'yeast fitness', '≤', 0.5),
  ('U8C C24A C46G G63A', 'yeast fitness', '=', 0.597),
  ('C61G C62A', 'yeast fitness', '=', 0.503),
  ('C4G U13A G68C', 'yeast fitness', '=', 0.541),
  ('U32C U35C C49G', 'yeast fitness', '=', 0.545),
  ('C22G C27G C29G C34A A36G A43U A65U', 'yeast fitness', '≤', 0.5),
  ('C24A G67U', 'yeast fitness', '=', 0.669),
  ('C55U G68U', 'yeast fitness', '=', 0.64),
  ('C5G C62G U64A', 'yeast fitness', '≤', 0.5),
  ('C4G U13C', 'yeast fitness', '=', 0.886),
  ('C5U U53G', 'yeast fitness', '=', 0.617),
  ('C34G C49U A57U', 'yeast fitness', '≤', 0.5),
  ('C22A C46A A65U', 'yeast fitness', '=', 0.687),
  ('C4A C5U A57U U59C', 'yeast fitness', '≤', 0.5),
  ('C22A C29G C33U A70C', 'yeast fitness', '≤', 0.5),
  ('G17U C29G', 'yeast fitness', '=', 0.544),
  ('C27G C33G G41A', 'yeast fitness', '≤', 0.5),
  ('A21U C66U', 'yeast fitness', '=', 0.78),
  ('U7G A43G C46G G63A', 'yeast fitness', '≤', 0.5),
  ('U2A U16C U28A G50A', 'yeast fitness', '≤', 0.5),
  ('C27G A43C G63C', 'yeast fitness', '≤', 0.5),
  ('U8G G51A', 'yeast fitness', '≤', 0.5),
  ('C5U A15C A21G C27U C46U', 'yeast fitness', '≤', 0.5),
  ('A40C C55G A69U', 'yeast fitness', '≤', 0.5),
  ('C5G A14U G25A G56A G67A', 'yeast fitness', '≤', 0.5),
  ('U13C C22A U32A A36G A43U', 'yeast fitness', '≤', 0.5),
  ('A20C C29G G52A', 'yeast fitness', '≤', 0.5),
  ('C4U A43U', 'yeast fitness', '=', 0.963),
  ('C11G A36C C46G C60G', 'yeast fitness', '=', 0.68),
  ('A43U G48A C61G A70C', 'yeast fitness', '≤', 0.5),
  ('C24U G68C', 'yeast fitness', '=', 0.823),
  ('C4U C11U C22G A45U', 'yeast fitness', '≤', 0.5),
  ('G17A C30G C61G', 'yeast fitness', '≤', 0.5),
  ('U28G C30G A40C A42U G67A', 'yeast fitness', '≤', 0.5),
  ('U35C U53A', 'yeast fitness', '=', 0.56),
  ('G23A G51A C66U', 'yeast fitness', '≤', 0.5),
  ('G10A G51A C66U', 'yeast fitness', '≤', 0.5),
  ('A20C G25C C33U C60A C66G', 'yeast fitness', '≤', 0.5),
  ('U7G C11G C34U G41A U64A', 'yeast fitness', '≤', 0.5),
  ('U7G U28C U59C U64C A70C', 'yeast fitness', '≤', 0.5),
  ('C11U A15C C27A G39C', 'yeast fitness', '≤', 0.5),
  ('C4U G52C C61A', 'yeast fitness', '=', 0.581),
  ('C11U A21G', 'yeast fitness', '=', 0.922),
  ('G56A A57U', 'yeast fitness', '=', 0.882),
  ('U7C C55A', 'yeast fitness', '=', 0.567),
  ('C27A C49G', 'yeast fitness', '=', 0.876),
  ('C4G C5G G39A C49A', 'yeast fitness', '≤', 0.5),
  ('U19G A57G', 'yeast fitness', '=', 0.611),
  ('C4G G10C U35C G38U C46G', 'yeast fitness', '≤', 0.5),
  ('U8C A20U A57G', 'yeast fitness', '≤', 0.5),
  ('C31G G44C A69C A70C', 'yeast fitness', '=', 0.528),
  ('G9A U19A U26A C34U', 'yeast fitness', '≤', 0.5),
  ('C5U U8A G68A', 'yeast fitness', '=', 0.544),
  ('C4U A20U C27G C30G U32C A43G A65C G68C', 'yeast fitness', '≤', 0.5),
  ('C11A C22A C29G A69G', 'yeast fitness', '=', 0.576),
  ('A14C A20G G23A C29U U35C C55G', 'yeast fitness', '≤', 0.5),
  ('C31U G39C A40U', 'yeast fitness', '=', 0.838),
  ('U19G A70U', 'yeast fitness', '=', 1.02),
  ('U16A C61A C66U A69C', 'yeast fitness', '=', 0.697),
  ('A40C C61A', 'yeast fitness', '=', 0.716),
  ('A14U C24G A36G C66U', 'yeast fitness', '≤', 0.5),
  ('G6C A57C A65U', 'yeast fitness', '≤', 0.5),
  ('C4A A20U G44C C60A', 'yeast fitness', '≤', 0.5),
  ('G39U', 'yeast fitness', '=', 1),
  ('A36U A43U', 'yeast fitness', '=', 0.638),
  ('C34U A37U G58C', 'yeast fitness', '=', 0.543);
